Where these numbers come from: patent EP0783507B1

- Measured target: catalytic domain of the human GARFT (Homo sapiens)
- Sequence (P22102 810-1010 limits assumed): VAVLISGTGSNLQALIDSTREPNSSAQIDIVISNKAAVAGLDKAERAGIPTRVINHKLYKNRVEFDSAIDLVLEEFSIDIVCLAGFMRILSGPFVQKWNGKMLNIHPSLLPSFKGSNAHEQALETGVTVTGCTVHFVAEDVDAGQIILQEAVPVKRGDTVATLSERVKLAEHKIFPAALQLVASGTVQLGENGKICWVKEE
Assay readout: pKi
Value format note: pKi is -log10 of concentration (mol/L); just state the number.

Any idea what its pKi is? The compound is Nc1nc2c(c(=O)[nH]1)SC(CCc1ccc(C(=O)N[C@@H](CCC(=O)O)C(=O)O)s1)CN2 (stereo partly shown) 8.35
